Reference source: ChEMBL document CHEMBL4219183

System: Aspergillus fumigatus
Assay: Antifungal activity against Aspergillus fumigatus after 24 hrs by two fold serial dilution method
Assay type: functional

{"COMPOUND": "Clc1ccc(Cn2c(Cn3cnc4c(N5CCOCC5)ncnc43)nc3ccccc32)cc1", "UNIT SYMBOL": "µg/mL", "MIC80": 256}
{"COMPOUND": "Cc1nc2cc([N+](=O)[O-])ccc2n1CCn1cnc2c(N3CCOCC3)ncnc21", "UNIT SYMBOL": "µg/mL", "MIC80": 128}
{"COMPOUND": "CCCCCCCCCCCCn1c(Cn2cnc3c(N4CCOCC4)ncnc32)nc2ccccc21", "UNIT SYMBOL": "µg/mL", "MIC80": 256}
{"COMPOUND": "Clc1ccccc1Cn1c(Cn2cnc3c(N4CCOCC4)ncnc32)nc2ccccc21", "UNIT SYMBOL": "µg/mL", "MIC80": 256}
{"COMPOUND": "CCCCn1c(Cn2cnc3c(N4CCOCC4)ncnc32)nc2ccccc21", "UNIT SYMBOL": "µg/mL", "MIC80": 256}
{"COMPOUND": "Fc1cccc(Cn2c(Cn3cnc4c(N5CCOCC5)ncnc43)nc3ccccc32)c1", "UNIT SYMBOL": "µg/mL", "MIC80": 256}
{"COMPOUND": "c1nc2nc[nH]c(N3CCCC3)c-2n1", "UNIT SYMBOL": "µg/mL", "MIC80": 64}
{"COMPOUND": "CCCCCCCCCCCCCCCCn1c(Cn2cnc3c(N4CCOCC4)ncnc32)nc2ccccc21", "UNIT SYMBOL": "µg/mL", "MIC80": 256}
{"COMPOUND": "c1ccc2c(c1)ncn2CCn1cnc2c(N3CCOCC3)ncnc21", "UNIT SYMBOL": "µg/mL", "MIC80": 256}
{"COMPOUND": "CC(=O)c1nc2ccccc2n1CCn1cnc2c(N3CCOCC3)ncnc21", "UNIT SYMBOL": "µg/mL", "MIC80": 128}
{"COMPOUND": "Fc1ccc(Cn2c(Cn3cnc4c(N5CCOCC5)ncnc43)nc3ccccc32)cc1", "UNIT SYMBOL": "µg/mL", "MIC80": 256}
{"COMPOUND": "CCCCCCn1c(Cn2cnc3c(N4CCCC4)ncnc32)nc2ccccc21", "UNIT SYMBOL": "µg/mL", "MIC80": 128}
{"COMPOUND": "c1ccc(Cn2c(Cn3cnc4c(N5CCOCC5)ncnc43)nc3ccccc32)cc1", "UNIT SYMBOL": "µg/mL", "MIC80": 512}
{"COMPOUND": "CCCCCCn1c(Cn2cnc3c(N4CCOCC4)ncnc32)nc2ccccc21", "UNIT SYMBOL": "µg/mL", "MIC80": 128}
{"COMPOUND": "Fc1ccccc1Cn1c(Cn2cnc3c(N4CCOCC4)ncnc32)nc2ccccc21", "UNIT SYMBOL": "µg/mL", "MIC80": 64}
{"COMPOUND": "Cc1nc2ccccc2n1CCn1cnc2c(N3CCOCC3)ncnc21", "UNIT SYMBOL": "µg/mL", "MIC80": 256}
{"COMPOUND": "CCCCCCn1c(Cn2cnc3c(N4CCCCC4)ncnc32)nc2ccccc21", "UNIT SYMBOL": "µg/mL", "MIC80": 128}
{"COMPOUND": "FC(F)(F)c1nc2ccccc2n1CCn1cnc2c(N3CCOCC3)ncnc21", "UNIT SYMBOL": "µg/mL", "MIC80": 256}
{"COMPOUND": "Cc1cc2ncn(CCn3cnc4c(N5CCOCC5)ncnc43)c2cc1C", "UNIT SYMBOL": "µg/mL", "MIC80": 128}
{"COMPOUND": "CCCCCCCCCCn1c(Cn2cnc3c(N4CCOCC4)ncnc32)nc2ccccc21", "UNIT SYMBOL": "µg/mL", "MIC80": 256}
{"COMPOUND": "CCn1c(Cn2cnc3c(N4CCOCC4)ncnc32)nc2ccccc21", "UNIT SYMBOL": "µg/mL", "MIC80": 256}
{"COMPOUND": "Clc1cccc(Cn2c(Cn3cnc4c(N5CCOCC5)ncnc43)nc3ccccc32)c1", "UNIT SYMBOL": "µg/mL", "MIC80": 256}
{"COMPOUND": "CCCCCCCCn1c(Cn2cnc3c(N4CCOCC4)ncnc32)nc2ccccc21", "UNIT SYMBOL": "µg/mL", "MIC80": 512}
{"COMPOUND": "c1nc(N2CCOCC2)c2nc[nH]c2n1", "UNIT SYMBOL": "µg/mL", "MIC80": 256}
{"COMPOUND": "c1nc(N2CCCCC2)c2nc[nH]c2n1", "UNIT SYMBOL": "µg/mL", "MIC80": 64}
{"COMPOUND": "C=CCn1c(Cn2cnc3c(N4CCOCC4)ncnc32)nc2ccccc21", "UNIT SYMBOL": "µg/mL", "MIC80": 128}
{"COMPOUND": "C#CCn1c(Cn2cnc3c(N4CCOCC4)ncnc32)nc2ccccc21", "UNIT SYMBOL": "µg/mL", "MIC80": 512}
{"COMPOUND": "OC(Cn1cncn1)(Cn1cncn1)c1ccc(F)cc1F [FLUCONAZOLE]", "UNIT SYMBOL": "µg/mL", "MIC80": 256}
